# target_or_system: T1, recombinant human RANKL (soluble, Gly136-Asp317, N-terminal 10 His, expressed in CHO cells) (human, UniProt O14788 136-317)
# T1 construct: residues between secretion signal and His tag are not described; also called hRANKL; hRNAKL
# T1 sequence: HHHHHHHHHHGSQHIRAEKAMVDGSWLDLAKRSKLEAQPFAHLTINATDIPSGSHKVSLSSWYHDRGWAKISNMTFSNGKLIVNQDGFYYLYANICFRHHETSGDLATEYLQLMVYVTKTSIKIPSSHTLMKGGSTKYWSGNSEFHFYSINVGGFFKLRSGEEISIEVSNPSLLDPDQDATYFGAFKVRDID
# assay_info: ELISA, hRANKL coated 1 µg/ml; concentration at 50% Bmax; Plate#02
assay_metric: EC50 (ng/mL)
// note: answer is a bare numeric in ng/mL

Worked examples, 2 binders total:
binder="G11 (antibody, human IgG2, kappa, V domains shown, 293F cells) VH: QVQLVQSGAELKKPGASVKLSCKASGYTFTTYWLQWVRQAPGQGLEWMGAIYPGPGNTKYTQKFKDRFTITADTSKSTAYMQLNSLKSEDSAVYYCARRGSRRGIAYWGQGTLVTVSA VL: NIVLTQSPASLSVSLGQRATISCRASESVDSYGRSFMHWYQQKPGQAPKLLIYLASNLESGVPSRFSGSGSRTDFTLTISAVEAEDAATYYCQQDNEDPYTFGGGTKLEIKG" recorded_value=1.9
binder="G12 (antibody, human IgG2, kappa, V domains shown, 293F cells) VH: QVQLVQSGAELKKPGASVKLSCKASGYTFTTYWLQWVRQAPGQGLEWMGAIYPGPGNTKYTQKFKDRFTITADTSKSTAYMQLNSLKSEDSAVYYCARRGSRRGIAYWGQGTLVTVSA VL: NIVLTQSPASLSVSLGQRATISCRASESVDSYGRSFMHWYQQRPGQAPKLLIYLASNLESGVPARFSGSGSRTDFTLTISSVEAEDEATYYCQQDNEDPYTFGGGTKLEIKG" recorded_value=1.75

# evaluate next
Notebook: G1 (antibody, human IgG2, kappa, V domains shown, expressed in 293F cells; also called murine antibody G1; mouse antibody (G1)) VH: QVQLQQSGAELASPGASVKLSCKASGYTFTTYWLQWVKQRPGQGLEWIGAIYPGPGNTKYTQKFKDKATLTADKSASTAYMQLNSLTSEDSAVYYCARRGSRRGIAYWGQGTLVTVSA VL: NIVLTQSPASLAVSLGQRATISCRASESVDSYGRSFMHWYQQRPGQPPTLLIYLASNLESGVPVRFSGSGSRTDFTLTIDPVEADDAATYYCQQDNEDPYTFGGGTKLEIKG , EC50 read as 1.88
